# Tested on: Wnt/β-catenin pathway
# assayNotes: luciferase-based reporter assay (SuperTopFlash) measuring Wnt/β-catenin-dependent transcriptional response, L-Wnt-STF cells
# Type: cell-based
# conditionDetails: Mus musculus; Table 1; luciferase reporter of Wnt/β-catenin-dependent transcriptional response
pEC50: −log10 of the molar value.
# pEC50 listing for each entry below

Please review the following examples before continuing.
>  <entrySmiles>
O=C(Nc1ccc(Br)cc1)c1ccc(N2C(=O)[C@@H]3[C@@H]4C=CC(C4)[C@@H]3C2=O)cc1

>  <targetEntity>
Wnt/β-catenin pathway

>  <measureName>
pEC50

>  <result>
6.00

$$$$
>  <entrySmiles>
O=C(Nc1ccccc1)c1ccc(N2C(=O)[C@@H]3[C@@H]4C=CC(C4)[C@@H]3C2=O)cc1

>  <targetEntity>
Wnt/β-catenin pathway

>  <measureName>
pEC50

>  <result>
< 4.60

$$$$
>  <entrySmiles>
O=C(NC1CCCCC1)c1ccc(N2C(=O)[C@@H]3[C@@H]4C=CC(C4)[C@@H]3C2=O)cc1

>  <targetEntity>
Wnt/β-catenin pathway

>  <measureName>
pEC50

>  <result>
< 4.60

$$$$

Let us move to another entry and its pEC50.
Data request: Can you look up pEC50 on Wnt/β-catenin pathway for `O=C(Nc1ccc(C(F)(F)F)cc1)c1ccc(N2C(=O)[C@@H]3[C@@H]4C=CC(C4)[C@@H]3C2=O)cc1` ?
Data returned: < 4.60
